biological target: UniProtKB P14625; assay: Affinity for Hsp90 paralogues: Grp94; assay type: binding; conditions: paralogue comparison
Sequence (P14625 22-803, species assumed): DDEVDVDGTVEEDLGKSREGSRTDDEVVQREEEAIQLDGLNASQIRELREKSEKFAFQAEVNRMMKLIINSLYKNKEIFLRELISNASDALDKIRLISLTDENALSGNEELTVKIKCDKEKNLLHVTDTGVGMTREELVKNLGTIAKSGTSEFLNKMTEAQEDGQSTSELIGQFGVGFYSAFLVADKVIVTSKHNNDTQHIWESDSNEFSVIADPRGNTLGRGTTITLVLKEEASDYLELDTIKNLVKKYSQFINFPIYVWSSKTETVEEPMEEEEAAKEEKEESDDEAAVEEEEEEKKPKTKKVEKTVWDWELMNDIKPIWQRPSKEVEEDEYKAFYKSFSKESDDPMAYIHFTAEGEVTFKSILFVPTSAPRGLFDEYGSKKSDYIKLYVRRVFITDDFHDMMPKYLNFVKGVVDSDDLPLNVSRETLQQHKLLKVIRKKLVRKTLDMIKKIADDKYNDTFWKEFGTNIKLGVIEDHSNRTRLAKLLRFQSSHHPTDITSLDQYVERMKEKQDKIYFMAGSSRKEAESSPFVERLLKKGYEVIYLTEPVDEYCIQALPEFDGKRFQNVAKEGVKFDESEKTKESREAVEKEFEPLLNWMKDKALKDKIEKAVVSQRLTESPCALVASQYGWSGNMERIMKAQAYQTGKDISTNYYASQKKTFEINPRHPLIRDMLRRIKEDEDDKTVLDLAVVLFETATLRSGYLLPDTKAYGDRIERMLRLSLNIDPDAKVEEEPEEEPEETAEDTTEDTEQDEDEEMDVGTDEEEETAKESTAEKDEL
property.measured: Affinity for Grp94 (nM)

Look up Affinity for Grp94 with UniProtKB P14625 for this compound: Nc1ncnc2c1nc(Sc1cc3c(cc1I)OCO3)n2CCCNC(=O)CCOCCOCCOCCOCCNC(=O)CCCC[C@@H]1SC[C@@H]2NC(=O)N[C@@H]21
226

A. CC(C)N(CCCn1c(Sc2cc3c(cc2I)OCO3)nc2c(N)ncnc21)C(=O)CCOCCOCCOCCOCCNC(=O)CCCC[C@@H]1SC[C@@H]2NC(=O)N[C@@H]21
B. CC(C)N(CCCn1c(Sc2cc3c(cc2I)OCO3)nc2c(N)ncnc21)C(=O)CCCCCNC(=O)CCCCCNC(=O)CCCC[C@@H]1SC[C@@H]2NC(=O)N[C@@H]21
C. Nc1ncnc2c1nc(Sc1cc3c(cc1I)OCO3)n2CCCNC(=O)CCCCCNC(=O)CCCCCNC(=O)CCCC[C@@H]1SC[C@@H]2NC(=O)N[C@@H]21
Rank ascending by Affinity for Grp94. I'd appreciate it if you listed the labels in the requested order.
B, A, C
